Biological target: TGF-beta1 (hTGF-beta1) (Homo sapiens, UniProt P01137 P01137:279-390)
Sequence (P01137 279-390, one chain of several): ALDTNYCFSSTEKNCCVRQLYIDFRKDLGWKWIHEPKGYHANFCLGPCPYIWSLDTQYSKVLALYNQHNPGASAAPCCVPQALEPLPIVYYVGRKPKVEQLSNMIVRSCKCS
Test: filter; biphasic; Kd1 4.6±0.7 nM
Conditions: tags: R&D Systems; biotinylated form (NFTG0) used for BIAcore; chain copies: 2
measurement type: pKd
One number for each entry, as −log10 of the molar value.

Identify pKd associated with the binder 40-11 (ssRNA, 2'-F C and U) RNA: GGGAGGACGAUGCGGUGCCUUUAGUCUGAAUCUUCUACCAUGAUUCUCUGCCGCAGACGACUCGCCCGA 11.31
